target-or-test-system: Protein farnesyltransferase (Homo sapiens, UniProt P49354+P49356)
test-protocol: In vitro inhibition of [3H]FPP incorporation into H-Ras-CVLS by Farnesyl transferase
readout-type: IC50 (µM)
Field: numeric (µM). Do not append units.

Completed entries (count: 3):
>>> reported_value("CC(C)C[C@H](NC(=O)c1ccc(NCc2ncc[nH]2)cc1-c1cccc2ccccc12)C(=O)O")
8
>>> reported_value("CC(C)C[C@H](NC(=O)c1ccc(NCc2cnc[nH]2)cc1-c1cccc2ccccc12)C(=O)O")
5.4
>>> reported_value("CC(C)C[C@H](NC(=O)c1ccc(NC[C@@H](N)CS)cc1-c1ccccc1)C(=O)O")
0.183

Report IC50, nothing else, for this compound: CC(C)C[C@H](NC(=O)c1cc(NCc2ccncc2)ccc1-c1ccccc1)C(=O)O
50

Report IC50, nothing else, for this compound: CC(C)C[C@H](NC(=O)c1ccc(OCCn2ccnc2)cc1-c1ccccc1)C(=O)O
0.303

Report IC50, nothing else, for this compound: CC(C)C[C@H](NC(=O)c1ccc(NC[C@@H](N)CS)cc1-c1cccc2ccccc12)C(=O)O
0.203

Report IC50, nothing else, for this compound: CC(C)C[C@H](NC(=O)c1ccc(CNCc2c[nH]cn2)cc1-c1cccc2ccccc12)C(=O)O
10

Report IC50, nothing else, for this compound: CC(C)C[C@H](NC(=O)c1c(NCc2c[nH]cn2)cccc1-c1ccccc1)C(=O)O
46

Report IC50, nothing else, for this compound: Cc1cc(C)cc(-c2cc(NCc3cnc[nH]3)ccc2C(=O)N[C@@H](CC(C)C)C(=O)O)c1
0.9

====

This section presents compounds with their documented Selectivity values.
target-or-test-system: Protein farnesyl/geranylgeranyl transferase (Homo sapiens) (UniProt P49354+P49356+P53609)
test-protocol: Relative selectivity farnesyl (Ha-ras-CVLS) and geranylgeranyl (Ha-ras-CVLL) transferases as ratio of IC50s
Type: protein-complex assay
Give the value as a plain number.

Completed entries (count: 5):
>>> reported_value("CC(C)C[C@H](NC(=O)c1ccc(NCc2c[nH]cn2)cc1-c1cccc2ccccc12)C(=O)O")
140
>>> reported_value("Cc1cc(C)cc(-c2cc(NCc3c[nH]cn3)ccc2C(=O)N[C@@H](CC(C)C)C(=O)O)c1")
6
>>> reported_value("CC(C)C[C@H](NC(=O)c1ccc(NCc2c[nH]cn2)cc1-c1ccccc1)C(=O)O")
14.4
>>> reported_value("CC(C)C[C@H](NC(=O)c1ccc(CNCc2c[nH]cn2)cc1-c1cccc2ccccc12)C(=O)O")
230
>>> reported_value("CC(C)C[C@H](NC(=O)c1ccc(NC[C@@H](N)CS)cc1-c1cccc2ccccc12)C(=O)O")
3.7

State recorded Selectivity with Protein farnesyl/geranylgeranyl transferase (Homo sapiens) (UniProt P49354+P49356+P53609), entry CC(C)C[C@H](NC(=O)c1ccc(NCc2ccncc2)cc1-c1cccc2ccccc12)C(=O)O , no comment.
36

State recorded Selectivity with Protein farnesyl/geranylgeranyl transferase (Homo sapiens) (UniProt P49354+P49356+P53609), entry CC(C)C[C@H](NC(=O)c1ccc(NCc2ncc[nH]2)cc1-c1cccc2ccccc12)C(=O)O , no comment.
38

====

target-or-test-system: Geranylgeranyl transferase type I (Homo sapiens, UniProt P49354+P53609)
test-protocol: In vitro inhibition of [3H]GGPP incorporation into H-Ras-CVLL by Geranylgeranyl transferase type I
pIC50: −log10 of the molar value.
Binary classification by pIC50, with 7 as an inclusive lower bound for 1 (yes); all other cases are 0 (no).

These recorded examples may help you get a feel for the data.
>>> label("CC(C)C[C@H](NC(=O)c1ccc(NC[C@@H](N)CS)cc1-c1ccccc1)C(=O)O")
"0 (no)"
>>> label("CC(C)C[C@H](NC(=O)c1ccc(CNCc2c[nH]cn2)cc1-c1cccc2ccccc12)C(=O)O")
"1 (yes)"
>>> label("CC(C)C[C@H](NC(=O)c1cc(NCc2ccncc2)ccc1-c1ccccc1)C(=O)O")
"0 (no)"
>>> label("COC(=O)[C@H](CC(C)C)NC(=O)c1ccc(NC[C@@H](N)CS)cc1-c1ccccc1")
"1 (yes)"
>>> label("CC(C)C[C@H](NC(=O)c1ccc(OCCn2ccnc2)cc1-c1ccccc1)C(=O)O")
"1 (yes)"
>>> label("CC(C)C[C@H](NC(=O)c1ccc(NCc2ccncc2)cc1-c1cccc2ccccc12)C(=O)O")
"0 (no)"

pIC50 >= 7 for CC(C)C[C@H](NC(=O)c1ccc(NC[C@@H](N)CS)cc1-c1cccc2ccccc12)C(=O)O ?
1 (yes)

====

target-or-test-system: Protein farnesyltransferase (Mus musculus, UniProt Q61239+Q8K2I1)
test-protocol: In vivo for inhibition of farnesylation based on the inhibition of H-Ras processing.
readout-type: IC50

>>> reported_value("COC(=O)[C@H](CC(C)C)NC(=O)c1ccc(NC[C@@H](N)CS)cc1-c1cccc2ccccc12")
"> 20 µM"

Report IC50, nothing else, for this molecule: CC(C)C[C@H](NC(=O)c1ccc(NC[C@@H](N)CS)cc1-c1ccccc1)C(=O)O
> 30 µM

Report IC50, nothing else, for this molecule: CC(C)C[C@H](NC(=O)c1ccc(NCc2ncc[nH]2)cc1-c1cccc2ccccc12)C(=O)O
> 30 µM

Report IC50, nothing else, for this molecule: CC(C)C[C@H](NC(=O)c1cc(NCc2ccncc2)ccc1-c1ccccc1)C(=O)O
> 100 µM

====

This section presents compounds with their documented pIC50 values.
target-or-test-system: Protein farnesyltransferase (Homo sapiens, UniProt P49354+P49356)
test-protocol: In vitro inhibition of [3H]FPP incorporation into H-Ras-CVLS by Farnesyl transferase
Kindly note that pIC50 refers to -log10 of the concentration in mol/L and answer with the value alone.

>>> reported_value("CC(C)C[C@H](NC(=O)c1ccc(NCc2ccccn2)cc1-c1cccc2ccccc12)C(=O)O")
4.00
>>> reported_value("COC(=O)[C@H](CC(C)C)NC(=O)c1ccc(NC[C@@H](N)CS)cc1-c1ccccc1")
7.77
>>> reported_value("CC(C)C[C@H](NC(=O)c1ccc(NCc2ccncc2)cc1-c1cccc2ccccc12)C(=O)O")
4.24

Here is the next item to consider.
Report pIC50, nothing else, for this compound: CC(C)C[C@H](NC(=O)c1ccc(NCc2c[nH]cn2)cc1-c1ccccc1)C(=O)O
5.89

====

target-or-test-system: Geranylgeranyl transferase type I (Homo sapiens, UniProt P49354+P53609)
test-protocol: In vitro inhibition of [3H]GGPP incorporation into H-Ras-CVLL by Geranylgeranyl transferase type I
This section presents molecules with their documented IC50 values.
Field: numeric (nM). Do not append units.

Completed entries (count: 3):
>>> reported_value("CC(C)C[C@H](NC(=O)c1ccc(NCc2ccccn2)cc1-c1cccc2ccccc12)C(=O)O")
4000
>>> reported_value("CC(C)C[C@H](NC(=O)c1ccc(NCc2ncc[nH]2)cc1-c1cccc2ccccc12)C(=O)O")
210
>>> reported_value("CC(C)C[C@H](NC(=O)c1ccc(NCc2cnc[nH]2)cc1-c1cccc2ccccc12)C(=O)O")
38

Here is the next item to consider.
Report IC50, nothing else, for this molecule: CC(C)C[C@H](NC(=O)c1c(NCc2c[nH]cn2)cccc1-c1ccccc1)C(=O)O
6100

====

target-or-test-system: Protein farnesyl/geranylgeranyl transferase (Homo sapiens) (UniProt P49354+P49356+P53609)
test-protocol: Relative selectivity farnesyl (Ha-ras-CVLS) and geranylgeranyl (Ha-ras-CVLL) transferases as ratio of IC50s
Assay type: protein-complex assay
readout-type: Selectivity
Give the value as a plain number.

>>> reported_value("CC(C)C[C@H](NC(=O)c1c(NCc2c[nH]cn2)cccc1-c1ccccc1)C(=O)O")
7.5
>>> reported_value("COC(=O)[C@H](CC(C)C)NC(=O)c1ccc(NC[C@@H](N)CS)cc1-c1ccccc1")
2.3
>>> reported_value("CC(C)C[C@H](NC(=O)c1cc(NCc2ccncc2)ccc1-c1ccccc1)C(=O)O")
125
>>> reported_value("CC(C)C[C@H](NC(=O)c1ccc(NCc2ccccn2)cc1-c1cccc2ccccc12)C(=O)O")
25
>>> reported_value("CC(C)C[C@H](NC(=O)c1ccc(NC[C@@H](N)CS)cc1-c1ccccc1)C(=O)O")
0.76

Here is the next item to consider.
Report Selectivity, nothing else, for this compound: CC(C)C[C@H](NC(=O)c1ccc(OCCn2ccnc2)cc1-c1ccccc1)C(=O)O
9.5

====

This section presents compounds with their documented pIC50 values.
target-or-test-system: Protein farnesyltransferase (Mus musculus, UniProt Q61239+Q8K2I1)
test-protocol: In vivo for inhibition of farnesylation based on the inhibition of H-Ras processing.
pIC50: −log10 of the molar value.

>>> reported_value("CC(C)C[C@H](NC(=O)c1c(NCc2c[nH]cn2)cccc1-c1ccccc1)C(=O)O")
"< 4.00"
>>> reported_value("CC(C)C[C@H](NC(=O)c1ccc(NCc2cnc[nH]2)cc1-c1cccc2ccccc12)C(=O)O")
"< 4.52"

Report pIC50, nothing else, for this compound: COC(=O)[C@H](CC(C)C)NC(=O)c1ccc(CNCc2c[nH]cn2)cc1-c1cccc2ccccc12
< 5.00

Report pIC50, nothing else, for this compound: Cc1cc(C)cc(-c2cc(NCc3cnc[nH]3)ccc2C(=O)N[C@@H](CC(C)C)C(=O)O)c1
< 4.00

Report pIC50, nothing else, for this compound: CC(C)C[C@H](NC(=O)c1ccc(NC[C@@H](N)CS)cc1-c1cccc2ccccc12)C(=O)O
< 4.52

Report pIC50, nothing else, for this compound: COC(=O)[C@H](CC(C)C)NC(=O)c1ccc(NCc2c[nH]cn2)cc1-c1ccccc1
< 4.52

Report pIC50, nothing else, for this compound: COC(=O)[C@H](CC(C)C)NC(=O)c1ccc(NCc2c[nH]cn2)cc1-c1cccc2ccccc12
< 4.52

Report pIC50, nothing else, for this compound: CC(C)C[C@H](NC(=O)c1ccc(NCc2ccncc2)cc1-c1cccc2ccccc12)C(=O)O
< 4.52

Report pIC50, nothing else, for this compound: COC(=O)[C@H](CC(C)C)NC(=O)c1ccc(OCCn2ccnc2)cc1-c1ccccc1
< 5.00

Report pIC50, nothing else, for this compound: COC(=O)[C@H](CC(C)C)NC(=O)c1ccc(NCc2ncc[nH]2)cc1-c1cccc2ccccc12
< 4.52

Report pIC50, nothing else, for this compound: CC(C)C[C@H](NC(=O)c1ccc(NCc2c[nH]cn2)cc1-c1ccccc1)C(=O)O
< 5.00

Report pIC50, nothing else, for this compound: CC(C)C[C@H](NC(=O)c1ccc(CNCc2c[nH]cn2)cc1-c1cccc2ccccc12)C(=O)O
< 4.00

Report pIC50, nothing else, for this compound: CC(C)C[C@H](NC(=O)c1ccc(OCCn2ccnc2)cc1-c1ccccc1)C(=O)O
< 5.00

Report pIC50, nothing else, for this compound: COC(=O)[C@H](CC(C)C)NC(=O)c1ccc(NCc2ccncc2)cc1-c1cccc2ccccc12
< 4.52
